I'd be grateful if you could share measured Ratio for these entries.
- STUDY_SYSTEM: Trehalose-phosphatase (Brugia malayi) (UniProt A8NS89)
- Sequence (A8NS89 whole entry): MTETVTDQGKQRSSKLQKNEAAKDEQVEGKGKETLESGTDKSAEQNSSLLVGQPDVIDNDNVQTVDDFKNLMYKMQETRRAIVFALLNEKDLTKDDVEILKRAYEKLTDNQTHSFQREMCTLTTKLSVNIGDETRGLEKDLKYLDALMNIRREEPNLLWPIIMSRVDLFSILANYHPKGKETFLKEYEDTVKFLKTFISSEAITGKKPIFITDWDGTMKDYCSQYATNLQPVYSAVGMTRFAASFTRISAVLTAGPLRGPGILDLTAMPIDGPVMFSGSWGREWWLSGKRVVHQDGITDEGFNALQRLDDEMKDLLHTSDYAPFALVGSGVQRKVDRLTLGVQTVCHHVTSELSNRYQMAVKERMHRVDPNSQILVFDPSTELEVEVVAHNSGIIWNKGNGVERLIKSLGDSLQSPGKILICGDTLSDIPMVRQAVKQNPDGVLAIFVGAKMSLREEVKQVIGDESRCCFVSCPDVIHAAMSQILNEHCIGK
- ASSAY: Inhibition of Brugia malayi T6PP using T6P as substrate assessed as fraction of enzyme unbound with compound by measuring ratio of initial velocities of T6P substrate hydrolysis in presence and absence of compound at 1 mM […] by BioMol green dye based HTS assay
Keep it simple and answer with nothing but the number.

Short answer for CO[C@H]1O[C@H](COS(=O)(=O)O)[C@@H](O)[C@H](O)[C@H]1OCc1ccccc1 : Ratio was 0.53

Short answer for O=S(=O)(O)OCc1cccc(O[C@@H]2O[C@H](CO)[C@@H](O)[C@H](O)[C@H]2O)c1 : Ratio was 0.59

Short answer for CC(=O)Nc1ccc(O[C@@H]2O[C@H](COS(=O)(=O)O)[C@@H](O)[C@H](O)[C@H]2O)cc1 : Ratio was 0.87

Short answer for O=S(=O)(O)OC[C@H]1O[C@H](O)[C@H](O)[C@@H](O)[C@@H]1O : Ratio was 0.93

Short answer for OC[C@H]1O[C@H](Oc2ccccc2)[C@H](O)[C@@H](O)[C@@H]1O : Ratio was 0.96

Short answer for CO[C@H]1O[C@H](COS(=O)(=O)O)[C@@H](O)[C@H](O)[C@H]1O : Ratio was 0.8

Short answer for OC[C@H]1O[C@@H](Nc2ccccc2)[C@H](O)[C@@H](O)[C@@H]1O : Ratio was 1

Short answer for CCCCCCCCc1ccc(O[C@@H]2O[C@H](COS(=O)(=O)O)[C@@H](O)[C@H](O)[C@H]2O)cc1 : Ratio was 0.07

Short answer for O=Cc1ccccc1O[C@@H]1O[C@H](COS(=O)(=O)O)[C@@H](O)[C@H](O)[C@H]1O : Ratio was 0.79

====

- ASSAY: Inhibition of Salmonella typhimurium T6PP using T6P as substrate by Lineweaver-Burk plot analysis
- Set-up: species or system Salmonella enterica subsp. enterica serovar Typhimurium
ASSAY_ENDPOINT: pKi
FYI, pKi means -log10 of a concentration in mol per litre.

Short answer for O=S(=O)(O)OC[C@H]1O[C@H](O[C@H]2O[C@H](CO)[C@@H](O)[C@H](O)[C@H]2O)[C@H](O)[C@@H](O)[C@@H]1O : pKi was 3.74

Short answer for CCCCCCc1ccc(O[C@H]2O[C@H](COS(=O)(=O)O)[C@@H](O)[C@H](O)[C@H]2O)cc1 : pKi was 3.55

Short answer for CCCCCCCCc1ccc(O[C@H]2O[C@H](COS(=O)(=O)O)[C@@H](O)[C@H](O)[C@H]2O)cc1 : pKi was 4.25

Short answer for CCCCCCCCc1ccc(O[C@@H]2O[C@H](COS(=O)(=O)O)[C@@H](O)[C@H](O)[C@H]2O)cc1 : pKi was 3.92

====

- STUDY_SYSTEM: Trehalose-phosphatase (Brugia malayi) (UniProt A8NS89)
- ASSAY: Inhibition of Brugia malayi T6PP using T6P as substrate assessed as fraction of enzyme unbound with compound by measuring ratio of initial velocities of T6P substrate hydrolysis in presence and absence of compound at 1 mM […] by BioMol green dye based HTS assay
ASSAY_ENDPOINT: Ratio
Keep it simple and answer with nothing but the number.

Short answer for O=S(=O)(O)OC[C@H]1O[C@@H](Oc2ccccc2)[C@H](O)[C@@H](O)[C@@H]1O : Ratio was 0.52

Short answer for O=S(=O)(O)OC[C@H]1O[C@@H](Oc2ccc(F)c(F)c2)[C@H](O)[C@@H](O)[C@@H]1O : Ratio was 0.74

Short answer for O=S(=O)(O)OC[C@H]1O[C@H](Oc2ccccc2)[C@H](O)[C@@H](O)[C@@H]1O : Ratio was 0.42

Short answer for O=S(=O)(O)OC[C@H]1O[C@@H](Oc2ccccc2CO)[C@H](O)[C@@H](O)[C@@H]1O : Ratio was 0.89

Short answer for OC[C@H]1O[C@@H](Oc2ccccc2)[C@H](O)[C@@H](O)[C@@H]1O : Ratio was 1.12

Short answer for O=S(=O)(O)OC[C@H]1O[C@H](OCc2ccccc2)[C@H](O)[C@@H](O)[C@@H]1O : Ratio was 0.07

Short answer for OC[C@H]1O[C@@H](NC(=S)Nc2ccccc2)[C@H](O)[C@@H](O)[C@@H]1O : Ratio was 0.99

Short answer for CO[C@H]1O[C@H](COS(=O)(=O)O)[C@@H](O)[C@H](OCc2ccccc2)[C@H]1O : Ratio was 0.67

Short answer for O=S(=O)(O)OC[C@H]1O[C@@H](n2cc(-c3ccccc3)nn2)[C@H](O)[C@@H](O)[C@@H]1O : Ratio was 0.98

Short answer for O=S(=O)(O)OC[C@H]1O[C@@H](Oc2cccc3ccccc23)[C@H](O)[C@@H](O)[C@@H]1O : Ratio was 0.85

Short answer for Nc1ccc(O[C@@H]2O[C@H](COS(=O)(=O)O)[C@@H](O)[C@H](O)[C@H]2O)cc1 : Ratio was 0.63

Short answer for O=S(=O)(O)OC[C@H]1O[C@H](O[C@H]2O[C@H](CO)[C@@H](O)[C@H](O)[C@H]2O)[C@H](O)[C@@H](O)[C@@H]1O : Ratio was 0.13

Short answer for NS(=O)(=O)OCc1cccc(N[C@@H]2O[C@H](CO)[C@@H](O)[C@H](O)[C@H]2O)c1 : Ratio was 1.05

====

- Test system: Shigella boydii
- ASSAY: Inhibition of Shigella boydii T6PP using T6P as substrate assessed as fraction of enzyme unbound with compound by measuring ratio of initial velocities of T6P substrate hydrolysis in presence and absence of compound at 1 mM after 5 mins by BioMol green dye based HTS assay
ASSAY_ENDPOINT: Ratio
Keep it simple and answer with nothing but the number.

Short answer for O=S(=O)(O)OC[C@H]1O[C@@H](Oc2ccc(F)c(F)c2)[C@H](O)[C@@H](O)[C@@H]1O : Ratio was 0.92

Short answer for OC[C@H]1O[C@H](Oc2ccccc2)[C@H](O)[C@@H](O)[C@@H]1O : Ratio was 0.86

Short answer for O=S(=O)(O)OC[C@H]1O[C@@H](Oc2cccc(CO)c2)[C@H](O)[C@@H](O)[C@@H]1O : Ratio was 0.46

Short answer for CO[C@H]1O[C@H](COS(=O)(=O)O)[C@@H](O)[C@H](O)[C@H]1OCc1ccccc1 : Ratio was 1

Short answer for OC[C@H]1O[C@@H](Oc2ccccc2)[C@H](O)[C@@H](O)[C@@H]1O : Ratio was 0.9

Short answer for O=S(=O)(O)OC[C@H]1O[C@H](O[C@H]2O[C@H](CO)[C@@H](O)[C@H](O)[C@H]2O)[C@H](O)[C@@H](O)[C@@H]1O : Ratio was 0.22

Short answer for O=S(=O)(O)OC[C@H]1O[C@H](OCc2ccccc2)[C@H](O)[C@@H](O)[C@@H]1O : Ratio was 0.74

Short answer for OC[C@H]1O[C@@H](n2cc(-c3ccccc3)nn2)[C@H](O)[C@@H](O)[C@@H]1O : Ratio was 1

Short answer for CCCCCCCCO[C@@H]1O[C@H](COS(=O)(=O)O)[C@@H](O)[C@H](O)[C@H]1O : Ratio was 0.79

Short answer for O=Cc1ccccc1O[C@@H]1O[C@H](COS(=O)(=O)O)[C@@H](O)[C@H](O)[C@H]1O : Ratio was 0.96

Short answer for NS(=O)(=O)OCc1cccc(N[C@@H]2O[C@H](CO)[C@@H](O)[C@H](O)[C@H]2O)c1 : Ratio was 0.85

Short answer for O=S(=O)(O)OC[C@H]1O[C@@H](Oc2ccccc2)[C@H](O)[C@@H](O)[C@@H]1O : Ratio was 0.76

Short answer for O=S(=O)(O)OC[C@H]1O[C@H](Oc2ccccc2)[C@H](O)[C@@H](O)[C@@H]1O : Ratio was 0.76

====

- ASSAY: Inhibition of Shigella boydii T6PP using T6P as substrate by Lineweaver-Burk plot analysis
I'd be grateful if you could share measured pKi for these entries.
FYI, pKi means -log10 of a concentration in mol per litre.

Short answer for CCCCCCCCc1ccc(O[C@@H]2O[C@H](COS(=O)(=O)O)[C@@H](O)[C@H](O)[C@H]2O)cc1 : pKi was 4.89

Short answer for O=S(=O)(O)OC[C@H]1O[C@H](O[C@H]2O[C@H](CO)[C@@H](O)[C@H](O)[C@H]2O)[C@H](O)[C@@H](O)[C@@H]1O : pKi was 3.48

Short answer for CCCCCCCCc1ccc(O[C@H]2O[C@H](COS(=O)(=O)O)[C@@H](O)[C@H](O)[C@H]2O)cc1 : pKi was 4.68

Short answer for CCCCCCc1ccc(O[C@H]2O[C@H](COS(=O)(=O)O)[C@@H](O)[C@H](O)[C@H]2O)cc1 : pKi was 4.11

Short answer for CCCCCCc1ccc(O[C@@H]2O[C@H](COS(=O)(=O)O)[C@@H](O)[C@H](O)[C@H]2O)cc1 : pKi was 3.85
